- run description: Equilibrium solubility, saturation shake-flask, centrifugation as phase separation
- recorded conditions: Britton-Robinson buffer, pH 7.4, Equilibrium solubility S stir, pH 7.4; continuously stirred, no sedimentation; 5000 rpm, 10 min
parameter: solubility thermodynamic at 24 h (µg/mL)
Report the value in µg/mL with no unit label.

Value lookup for solubility thermodynamic at 24 h; key = CC(=O)[C@H]1CC[C@H]2[C@@H]3CCC4=CC(=O)CC[C@]4(C)[C@H]3CC[C@]12C 11.3

###

- run description: Equilibrium solubility, saturation shake-flask, centrifugation as phase separation
- recorded conditions: Britton-Robinson buffer, 25 °C, pH 3, aqueous buffer, thermodynamic from solid, Equilibrium solubility S stir, pH 3.0; continuously stirred, no sedimentation; 5000 rpm, 20 min
Structures can show the parent of a compound that is named as a salt.
parameter: solubility thermodynamic at 24 h (mg/mL)
Report the value in mg/mL with no unit label.

Value lookup for solubility thermodynamic at 24 h; key = COc1ccc(Cc2nccc3cc(OC)c(OC)cc23)cc1OC [PAP-HCL, papaverine hydrochloride] 38.4

###

- run description: Equilibrium solubility, saturation shake-flask, centrifugation as phase separation
- recorded conditions: Britton-Robinson buffer, 25 °C, pH 10, aqueous buffer, thermodynamic from solid, Equilibrium solubility S sed, pH 10.0; sedimented before centrifugation; 10,000 rpm, 20 min
Structures can show the parent of a compound that is named as a salt.
parameter: solubility thermodynamic (µg/mL)
Report the value in µg/mL with no unit label.

Value lookup for solubility thermodynamic; key = COc1ccc(Cc2nccc3cc(OC)c(OC)cc23)cc1OC [PAP-HCL, papaverine hydrochloride] 18.7

###

- run description: Equilibrium solubility, saturation shake-flask, centrifugation as phase separation
- recorded conditions: Britton-Robinson buffer, 25 °C, pH 3, aqueous buffer, thermodynamic from solid, Equilibrium solubility S stir, pH 3.0; continuously stirred, no sedimentation; 10,000 rpm, 5 min
Counter-ions that a name gives are not always drawn.
parameter: solubility thermodynamic at 24 h (mg/mL)
Report the value in mg/mL with no unit label.

Value lookup for solubility thermodynamic at 24 h; key = COc1ccc(Cc2nccc3cc(OC)c(OC)cc23)cc1OC [PAP-HCL, papaverine hydrochloride] 39.1

###

- run description: Equilibrium solubility, saturation shake-flask, centrifugation as phase separation
- recorded conditions: Britton-Robinson buffer, 25 °C, pH 6.4, aqueous buffer, thermodynamic from solid, Equilibrium solubility S stir, pH 6.4; continuously stirred, no sedimentation; 5000 rpm, 5 min
Where a name gives a salt, the structure may show the parent alone.
parameter: solubility thermodynamic at 24 h
Write your answer as a measured quantity: the number, then the unit.

Value lookup for solubility thermodynamic at 24 h; key = COc1ccc(Cc2nccc3cc(OC)c(OC)cc23)cc1OC [PAP-HCL, papaverine hydrochloride] 33 µg/mL

###

- run description: Equilibrium solubility, saturation shake-flask, centrifugation as phase separation
- recorded conditions: Britton-Robinson buffer, 25 °C, pH 3, aqueous buffer, thermodynamic from solid, Equilibrium solubility S stir, pH 3.0; continuously stirred, no sedimentation; 10,000 rpm, 10 min
Where a name gives a salt, the structure may show the parent alone.
parameter: solubility thermodynamic at 24 h (mg/mL)
Report the value in mg/mL with no unit label.

Value lookup for solubility thermodynamic at 24 h; key = COc1ccc(Cc2nccc3cc(OC)c(OC)cc23)cc1OC [PAP-HCL, papaverine hydrochloride] 40.4

###

- run description: Equilibrium solubility, saturation shake-flask, centrifugation as phase separation
- recorded conditions: Britton-Robinson buffer, 25 °C, pH 6.4, aqueous buffer, thermodynamic from solid, Equilibrium solubility S stir, pH 6.4; continuously stirred, no sedimentation; 10,000 rpm, 10 min
Counter-ions that a name gives are not always drawn.
parameter: solubility thermodynamic at 24 h (µg/mL)
Report the value in µg/mL with no unit label.

Value lookup for solubility thermodynamic at 24 h; key = COc1ccc(Cc2nccc3cc(OC)c(OC)cc23)cc1OC [PAP-HCL, papaverine hydrochloride] 37.8

###

- run description: Equilibrium solubility, saturation shake-flask, sedimentation as phase separation (reference, standard protocol)
- recorded conditions: Britton-Robinson buffer, 25 °C, pH 6.4, aqueous buffer, thermodynamic from solid, Solubility (reference), pH 6.4; 6 h stirring, 18 h sedimentation
Counter-ions that a name gives are not always drawn.
parameter: solubility (µg/mL)
Report the value in µg/mL with no unit label.

Value lookup for solubility; key = COc1ccc(Cc2nccc3cc(OC)c(OC)cc23)cc1OC [PAP-HCL, papaverine hydrochloride] 24.2

###

- run description: Equilibrium solubility, saturation shake-flask, centrifugation as phase separation
- recorded conditions: Britton-Robinson buffer, 25 °C, pH 3, aqueous buffer, thermodynamic from solid, Equilibrium solubility S sed, pH 3.0; sedimented before centrifugation; 5000 rpm, 5 min
Counter-ions that a name gives are not always drawn.
parameter: solubility thermodynamic (mg/mL)
Report the value in mg/mL with no unit label.

Value lookup for solubility thermodynamic; key = COc1ccc(Cc2nccc3cc(OC)c(OC)cc23)cc1OC [PAP-HCL, papaverine hydrochloride] 37.2

###

- run description: Equilibrium solubility, saturation shake-flask, centrifugation as phase separation
- recorded conditions: Britton-Robinson buffer, pH 2, Equilibrium solubility S stir, pH 2.0; continuously stirred, no sedimentation; 10,000 rpm, 10 min
parameter: solubility thermodynamic at 24 h (µg/mL)
Report the value in µg/mL with no unit label.

Value lookup for solubility thermodynamic at 24 h; key = O=C(O)Cc1ccccc1Nc1c(Cl)cccc1Cl [DICL-NA, Diclofenac sodium] 1.78

###

- run description: Equilibrium solubility, saturation shake-flask, centrifugation as phase separation
- recorded conditions: Britton-Robinson buffer, pH 10, Equilibrium solubility S sed, pH 10.0; sedimented before centrifugation; 5000 rpm, 5 min
Structures can show the parent of a compound that is named as a salt.
parameter: solubility thermodynamic (µg/mL)
Report the value in µg/mL with no unit label.

Value lookup for solubility thermodynamic; key = COc1ccc(Cc2nccc3cc(OC)c(OC)cc23)cc1OC [PAP-HCL, papaverine hydrochloride] 17

###

- run description: Equilibrium solubility, saturation shake-flask, centrifugation as phase separation
- recorded conditions: Britton-Robinson buffer, 25 °C, pH 6.4, aqueous buffer, thermodynamic from solid, Equilibrium solubility S stir, pH 6.4; continuously stirred, no sedimentation; 10,000 rpm, 20 min
Counter-ions that a name gives are not always drawn.
parameter: solubility thermodynamic at 24 h

Value lookup for solubility thermodynamic at 24 h; key = COc1ccc(Cc2nccc3cc(OC)c(OC)cc23)cc1OC [PAP-HCL, papaverine hydrochloride] 39.1 µg/mL

###

- run description: Equilibrium solubility, saturation shake-flask, centrifugation as phase separation
- recorded conditions: Britton-Robinson buffer, 25 °C, pH 3, aqueous buffer, thermodynamic from solid, Equilibrium solubility S sed, pH 3.0; sedimented before centrifugation; 5000 rpm, 10 min
Structures can show the parent of a compound that is named as a salt.
parameter: solubility thermodynamic (mg/mL)
Report the value in mg/mL with no unit label.

Value lookup for solubility thermodynamic; key = COc1ccc(Cc2nccc3cc(OC)c(OC)cc23)cc1OC [PAP-HCL, papaverine hydrochloride] 38

###

- run description: Equilibrium solubility, saturation shake-flask, centrifugation as phase separation
- recorded conditions: Britton-Robinson buffer, 25 °C, pH 6.4, aqueous buffer, thermodynamic from solid, Equilibrium solubility S stir, pH 6.4; continuously stirred, no sedimentation; 10,000 rpm, 5 min
Structures can show the parent of a compound that is named as a salt.
parameter: solubility thermodynamic at 24 h (µg/mL)
Report the value in µg/mL with no unit label.

Value lookup for solubility thermodynamic at 24 h; key = COc1ccc(Cc2nccc3cc(OC)c(OC)cc23)cc1OC [PAP-HCL, papaverine hydrochloride] 28.6

###

- run description: Equilibrium solubility, saturation shake-flask, centrifugation as phase separation
- recorded conditions: Britton-Robinson buffer, 25 °C, pH 10, aqueous buffer, thermodynamic from solid, Equilibrium solubility S sed, pH 10.0; sedimented before centrifugation; 10,000 rpm, 5 min
Where a name gives a salt, the structure may show the parent alone.
parameter: solubility thermodynamic
Write your answer as a measured quantity: the number, then the unit.

Value lookup for solubility thermodynamic; key = COc1ccc(Cc2nccc3cc(OC)c(OC)cc23)cc1OC [PAP-HCL, papaverine hydrochloride] 16.3 µg/mL

###

- run description: Equilibrium solubility, saturation shake-flask, centrifugation as phase separation
- recorded conditions: Britton-Robinson buffer, 25 °C, pH 6.4, aqueous buffer, thermodynamic from solid, Equilibrium solubility S sed, pH 6.4; sedimented before centrifugation; 10,000 rpm, 10 min
Structures can show the parent of a compound that is named as a salt.
parameter: solubility thermodynamic (µg/mL)
Report the value in µg/mL with no unit label.

Value lookup for solubility thermodynamic; key = COc1ccc(Cc2nccc3cc(OC)c(OC)cc23)cc1OC [PAP-HCL, papaverine hydrochloride] 32.8

###

- run description: Equilibrium solubility, saturation shake-flask, centrifugation as phase separation
- recorded conditions: Britton-Robinson buffer, 25 °C, pH 6.4, aqueous buffer, thermodynamic from solid, Equilibrium solubility S sed, pH 6.4; sedimented before centrifugation; 5000 rpm, 20 min
Structures can show the parent of a compound that is named as a salt.
parameter: solubility thermodynamic (mg/mL)
Report the value in mg/mL with no unit label.

Value lookup for solubility thermodynamic; key = COc1ccc(Cc2nccc3cc(OC)c(OC)cc23)cc1OC [PAP-HCL, papaverine hydrochloride] 0.0282
